Origin of measurements: patent US20250120967A1

Molecular target: PTK2 (FAK) (Homo sapiens)
Sequence (Q05397 whole entry): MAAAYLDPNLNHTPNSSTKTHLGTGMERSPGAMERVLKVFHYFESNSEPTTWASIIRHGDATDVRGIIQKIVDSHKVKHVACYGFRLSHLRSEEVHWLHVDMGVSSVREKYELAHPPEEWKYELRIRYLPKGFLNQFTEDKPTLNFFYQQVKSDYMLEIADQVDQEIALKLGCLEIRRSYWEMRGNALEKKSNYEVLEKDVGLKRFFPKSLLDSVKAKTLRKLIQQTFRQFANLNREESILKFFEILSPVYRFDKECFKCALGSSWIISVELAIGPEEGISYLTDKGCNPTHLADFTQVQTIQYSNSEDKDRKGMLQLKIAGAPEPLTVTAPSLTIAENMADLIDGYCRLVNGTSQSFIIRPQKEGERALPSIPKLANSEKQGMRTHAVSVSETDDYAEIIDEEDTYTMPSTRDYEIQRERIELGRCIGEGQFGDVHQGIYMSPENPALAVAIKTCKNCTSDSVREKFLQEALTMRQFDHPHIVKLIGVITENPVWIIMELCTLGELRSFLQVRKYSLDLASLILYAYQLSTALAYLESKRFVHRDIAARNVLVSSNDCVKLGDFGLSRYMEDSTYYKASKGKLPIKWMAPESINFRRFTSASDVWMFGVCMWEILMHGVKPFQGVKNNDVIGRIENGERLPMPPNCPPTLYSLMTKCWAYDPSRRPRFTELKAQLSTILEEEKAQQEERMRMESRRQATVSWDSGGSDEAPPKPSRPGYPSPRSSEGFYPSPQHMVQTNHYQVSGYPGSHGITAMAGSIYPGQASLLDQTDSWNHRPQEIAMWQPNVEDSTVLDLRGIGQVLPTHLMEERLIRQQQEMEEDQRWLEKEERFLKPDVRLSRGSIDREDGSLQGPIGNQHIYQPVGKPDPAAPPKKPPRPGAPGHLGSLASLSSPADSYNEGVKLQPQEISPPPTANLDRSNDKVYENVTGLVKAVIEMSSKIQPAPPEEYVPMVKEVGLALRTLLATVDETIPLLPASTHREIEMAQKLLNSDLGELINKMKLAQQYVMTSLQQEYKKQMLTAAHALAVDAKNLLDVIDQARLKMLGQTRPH
Assay: Tyrosine kinase inhibition assay
Assay type: biochemical
Conditions: single concentration 1.0 μM, read-out: percent inhibition
Description: Tyrosine kinase inhibition assays were performed at ThermoFisher Life Technologies (Madison, WI, USA) using standard protocols (SelectScreen Biochemical Profiling Service, Thermo Fisher Scientific). ATP concentrations used were at the apparent Km. […] The apparent ATP Km was previously determined using a Z′-LYTE assay. […] The inhibition activities of compounds were determined in biochemical assays using single concentration (1.0 μM) measurements. […]
Entries and their inhibition at 1 µM values follow.

- RECORD SMILES: "COc1cc2nccc(Oc3ccc(NC(=O)C4(NC(=O)c5ccc(F)cc5)CC4)cc3F)c2cc1Oc1c(F)cc(N)cc1F"
  inhibition at 1 µM (%): 29
- RECORD SMILES: "COc1cc2nccc(Oc3ccc(NC(=O)C4(NC(=O)c5ccc(F)cc5)CC4)cc3F)c2cc1Oc1ccc(N)cc1F"
  inhibition at 1 µM (%): 33
- RECORD SMILES: "COc1cc2nccc(Oc3ccc(NC(=O)C4(C(=O)Nc5ccc(F)cc5)CC4)cc3F)c2cc1Oc1ccc(N)cc1F"
  inhibition at 1 µM (%): 66
- RECORD SMILES: "COc1cc2nccc(Oc3ccc(NC(=O)C4(NC(=O)c5ccc(F)cc5)CC4)cc3F)c2cc1OC"
  inhibition at 1 µM (%): 20

###

Entries and their inhibition at 1 µM values follow.
target: FGFR3 (Homo sapiens, UniProt P22607); assay: Tyrosine kinase inhibition assay; assay type: biochemical; details: single concentration 1.0 μM, read-out: percent inhibition
Sequence (P22607 23-806): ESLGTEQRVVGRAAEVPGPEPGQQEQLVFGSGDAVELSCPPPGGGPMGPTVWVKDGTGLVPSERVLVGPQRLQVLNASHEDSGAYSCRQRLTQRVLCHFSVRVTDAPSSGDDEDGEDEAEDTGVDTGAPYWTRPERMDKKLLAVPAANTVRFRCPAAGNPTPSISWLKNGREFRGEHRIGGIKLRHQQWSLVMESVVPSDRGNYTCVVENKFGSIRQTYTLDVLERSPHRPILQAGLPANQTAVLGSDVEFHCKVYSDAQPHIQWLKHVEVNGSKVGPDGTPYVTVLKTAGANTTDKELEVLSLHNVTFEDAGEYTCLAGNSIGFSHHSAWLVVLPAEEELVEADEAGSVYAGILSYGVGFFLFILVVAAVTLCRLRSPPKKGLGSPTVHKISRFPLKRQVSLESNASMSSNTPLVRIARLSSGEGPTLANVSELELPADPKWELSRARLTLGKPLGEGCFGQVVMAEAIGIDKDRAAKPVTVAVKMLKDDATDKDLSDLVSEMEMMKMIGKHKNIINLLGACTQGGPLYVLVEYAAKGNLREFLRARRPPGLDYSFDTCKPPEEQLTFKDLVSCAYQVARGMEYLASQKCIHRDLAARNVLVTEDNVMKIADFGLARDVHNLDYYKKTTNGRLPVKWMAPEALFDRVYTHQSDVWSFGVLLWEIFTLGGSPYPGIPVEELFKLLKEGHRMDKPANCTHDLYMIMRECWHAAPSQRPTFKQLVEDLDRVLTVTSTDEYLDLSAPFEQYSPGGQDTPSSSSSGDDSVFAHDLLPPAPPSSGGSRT

- COMPOUND: "COc1cc2nccc(Oc3ccc(NC(=O)C4(C(=O)Nc5ccc(F)cc5)CC4)cc3F)c2cc1Oc1ccc(N)cc1F"
  TESTED TARGET: "FGFR3 (Homo sapiens, UniProt P22607)"
  inhibition at 1 µM: "13%"
- COMPOUND: "COc1cc2nccc(Oc3ccc(NC(=O)C4(NC(=O)c5ccc(F)cc5)CC4)cc3F)c2cc1Oc1ccc(N)cc1F"
  TESTED TARGET: "FGFR3 (Homo sapiens, UniProt P22607)"
  inhibition at 1 µM: "19%"
- COMPOUND: "COc1cc2nccc(Oc3ccc(NC(=O)C4(NC(=O)c5ccc(F)cc5)CC4)cc3F)c2cc1OC"
  TESTED TARGET: "FGFR3 (Homo sapiens, UniProt P22607)"
  inhibition at 1 µM: "4%"
- COMPOUND: "COc1cc2nccc(Oc3ccc(NC(=O)C4(C(=O)Nc5ccc(F)cc5)CC4)cc3)c2cc1OC [Cabozantinib, reference compound]"
  TESTED TARGET: "FGFR3 (Homo sapiens, UniProt P22607)"
  inhibition at 1 µM: "16%"
- COMPOUND: "COc1cc2nccc(Oc3ccc(NC(=O)C4(NC(=O)c5ccc(F)cc5)CC4)cc3F)c2cc1Oc1c(F)cc(N)cc1F"
  TESTED TARGET: "FGFR3 (Homo sapiens, UniProt P22607)"
  inhibition at 1 µM: "19%"

###

Entries and their inhibition at 1 µM values follow.
target: TEK (Tie2) (Homo sapiens); experiment: Tyrosine kinase inhibition assay; assay type: biochemical; details: single concentration 1.0 μM, read-out: percent inhibition
Sequence (Q02763 23-1124): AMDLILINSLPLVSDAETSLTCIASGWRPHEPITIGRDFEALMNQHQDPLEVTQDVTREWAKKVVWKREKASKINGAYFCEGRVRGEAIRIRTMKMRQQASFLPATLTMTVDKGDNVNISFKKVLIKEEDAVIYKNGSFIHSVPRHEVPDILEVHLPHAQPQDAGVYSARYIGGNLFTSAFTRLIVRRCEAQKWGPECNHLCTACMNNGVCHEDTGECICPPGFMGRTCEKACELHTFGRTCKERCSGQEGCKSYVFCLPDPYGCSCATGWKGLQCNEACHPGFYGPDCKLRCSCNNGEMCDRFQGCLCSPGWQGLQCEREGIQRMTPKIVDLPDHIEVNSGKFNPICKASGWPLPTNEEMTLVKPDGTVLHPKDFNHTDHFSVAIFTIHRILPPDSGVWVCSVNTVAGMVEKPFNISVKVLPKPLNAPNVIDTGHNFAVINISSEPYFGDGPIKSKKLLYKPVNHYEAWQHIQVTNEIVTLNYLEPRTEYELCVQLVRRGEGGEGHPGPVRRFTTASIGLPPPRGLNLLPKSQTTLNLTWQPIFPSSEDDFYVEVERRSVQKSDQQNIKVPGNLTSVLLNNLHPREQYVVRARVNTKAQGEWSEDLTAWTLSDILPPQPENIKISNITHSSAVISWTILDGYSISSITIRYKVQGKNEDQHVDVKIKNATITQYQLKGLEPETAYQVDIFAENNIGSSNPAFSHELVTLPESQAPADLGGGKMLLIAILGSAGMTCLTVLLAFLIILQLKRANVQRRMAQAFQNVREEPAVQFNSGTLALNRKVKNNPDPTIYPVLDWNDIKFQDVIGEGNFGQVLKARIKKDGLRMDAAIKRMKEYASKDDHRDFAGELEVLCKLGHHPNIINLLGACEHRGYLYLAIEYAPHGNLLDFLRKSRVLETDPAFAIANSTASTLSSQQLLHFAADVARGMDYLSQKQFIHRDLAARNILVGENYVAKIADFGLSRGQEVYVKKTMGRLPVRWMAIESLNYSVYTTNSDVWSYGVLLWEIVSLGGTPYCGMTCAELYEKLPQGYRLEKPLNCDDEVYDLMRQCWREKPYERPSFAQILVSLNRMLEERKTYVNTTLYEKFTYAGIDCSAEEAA
ENDPOINT LABEL: inhibition at 1 µM (%)

- COMPOUND: "COc1cc2nccc(Oc3ccc(NC(=O)C4(NC(=O)c5ccc(F)cc5)CC4)cc3F)c2cc1Oc1ccc(N)cc1F"
  ENDPOINT VALUE: 85
- COMPOUND: "COc1cc2nccc(Oc3ccc(NC(=O)C4(NC(=O)c5ccc(F)cc5)CC4)cc3F)c2cc1OC"
  ENDPOINT VALUE: 77
- COMPOUND: "COc1cc2nccc(Oc3ccc(NC(=O)C4(NC(=O)c5ccc(F)cc5)CC4)cc3F)c2cc1Oc1c(F)cc(N)cc1F"
  ENDPOINT VALUE: 90
- COMPOUND: "COc1cc2nccc(Oc3ccc(NC(=O)C4(C(=O)Nc5ccc(F)cc5)CC4)cc3)c2cc1OC [Cabozantinib, reference compound]"
  ENDPOINT VALUE: 89
- COMPOUND: "COc1cc2nccc(Oc3ccc(NC(=O)C4(C(=O)Nc5ccc(F)cc5)CC4)cc3F)c2cc1Oc1ccc(N)cc1F"
  ENDPOINT VALUE: 95

###

biological target: CSK (Homo sapiens, UniProt P41240); assay: Tyrosine kinase inhibition assay; assay type: biochemical; conditions: single concentration 1.0 μM, read-out: percent inhibition
Sequence (P41240 whole entry): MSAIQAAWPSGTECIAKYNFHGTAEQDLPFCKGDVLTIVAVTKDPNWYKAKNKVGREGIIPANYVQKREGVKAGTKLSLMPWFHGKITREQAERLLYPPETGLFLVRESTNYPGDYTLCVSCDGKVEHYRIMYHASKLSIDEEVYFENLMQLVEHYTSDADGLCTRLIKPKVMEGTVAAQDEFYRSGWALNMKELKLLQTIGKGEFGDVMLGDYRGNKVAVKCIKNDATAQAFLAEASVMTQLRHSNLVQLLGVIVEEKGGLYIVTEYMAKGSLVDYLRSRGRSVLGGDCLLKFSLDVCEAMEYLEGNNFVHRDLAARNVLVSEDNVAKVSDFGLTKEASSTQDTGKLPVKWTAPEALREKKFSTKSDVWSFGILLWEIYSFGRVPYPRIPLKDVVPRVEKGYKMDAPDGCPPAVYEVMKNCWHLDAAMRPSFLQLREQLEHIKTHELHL
ENDPOINT LABEL: inhibition at 1 µM (%)

- MOLECULE: "COc1cc2nccc(Oc3ccc(NC(=O)C4(NC(=O)c5ccc(F)cc5)CC4)cc3F)c2cc1Oc1c(F)cc(N)cc1F"
  DISPLAY UNIT: "%"
  ENDPOINT VALUE: 97
- MOLECULE: "COc1cc2nccc(Oc3ccc(NC(=O)C4(NC(=O)c5ccc(F)cc5)CC4)cc3F)c2cc1Oc1ccc(N)cc1F"
  DISPLAY UNIT: "%"
  ENDPOINT VALUE: 97
- MOLECULE: "COc1cc2nccc(Oc3ccc(NC(=O)C4(C(=O)Nc5ccc(F)cc5)CC4)cc3)c2cc1OC [Cabozantinib, reference compound]"
  DISPLAY UNIT: "%"
  ENDPOINT VALUE: 49
- MOLECULE: "COc1cc2nccc(Oc3ccc(NC(=O)C4(C(=O)Nc5ccc(F)cc5)CC4)cc3F)c2cc1Oc1ccc(N)cc1F"
  DISPLAY UNIT: "%"
  ENDPOINT VALUE: 66
- MOLECULE: "COc1cc2nccc(Oc3ccc(NC(=O)C4(NC(=O)c5ccc(F)cc5)CC4)cc3F)c2cc1OC"
  DISPLAY UNIT: "%"
  ENDPOINT VALUE: 87

###

Entries and their inhibition at 1 µM values follow.
molecular target: LTK (TYK1) (Homo sapiens, UniProt P29376); test: Tyrosine kinase inhibition assay; assay type: biochemical; conditions: single concentration 1.0 μM, read-out: percent inhibition
Sequence (P29376 17-864): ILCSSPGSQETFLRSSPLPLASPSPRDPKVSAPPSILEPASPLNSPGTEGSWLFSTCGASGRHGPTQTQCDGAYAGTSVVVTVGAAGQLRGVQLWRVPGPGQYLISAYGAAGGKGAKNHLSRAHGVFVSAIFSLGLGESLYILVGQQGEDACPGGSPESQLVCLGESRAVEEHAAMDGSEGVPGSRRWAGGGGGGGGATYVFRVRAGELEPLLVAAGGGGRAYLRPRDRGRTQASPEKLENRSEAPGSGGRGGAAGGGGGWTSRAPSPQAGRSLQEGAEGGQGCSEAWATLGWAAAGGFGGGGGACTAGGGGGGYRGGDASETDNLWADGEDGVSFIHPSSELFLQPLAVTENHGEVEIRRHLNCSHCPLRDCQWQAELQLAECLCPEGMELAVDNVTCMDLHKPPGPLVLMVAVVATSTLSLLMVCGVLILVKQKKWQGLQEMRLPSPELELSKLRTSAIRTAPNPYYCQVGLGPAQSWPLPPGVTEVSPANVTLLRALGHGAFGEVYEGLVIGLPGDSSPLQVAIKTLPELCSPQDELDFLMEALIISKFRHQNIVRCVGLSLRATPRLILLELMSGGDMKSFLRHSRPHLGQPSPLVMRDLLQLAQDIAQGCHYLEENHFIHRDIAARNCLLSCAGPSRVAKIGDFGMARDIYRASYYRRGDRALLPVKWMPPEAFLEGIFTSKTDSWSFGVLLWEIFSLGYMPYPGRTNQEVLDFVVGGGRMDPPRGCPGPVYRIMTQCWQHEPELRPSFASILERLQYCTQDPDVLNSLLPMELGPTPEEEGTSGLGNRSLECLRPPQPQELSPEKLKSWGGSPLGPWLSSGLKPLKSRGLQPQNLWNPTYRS

- MOLECULE: "COc1cc2nccc(Oc3ccc(NC(=O)C4(NC(=O)c5ccc(F)cc5)CC4)cc3F)c2cc1Oc1ccc(N)cc1F [Cbo-10]"
  DISPLAY UNIT: "%"
  inhibition at 1 µM: 69
- MOLECULE: "COc1cc2nccc(Oc3ccc(NC(=O)C4(C(=O)Nc5ccc(F)cc5)CC4)cc3F)c2cc1Oc1ccc(N)cc1F [Cbo-23]"
  DISPLAY UNIT: "%"
  inhibition at 1 µM: 55
- MOLECULE: "COc1cc2nccc(Oc3ccc(NC(=O)C4(NC(=O)c5ccc(F)cc5)CC4)cc3F)c2cc1Oc1c(F)cc(N)cc1F [Cbo-14]"
  DISPLAY UNIT: "%"
  inhibition at 1 µM: 79
- MOLECULE: "COc1cc2nccc(Oc3ccc(NC(=O)C4(NC(=O)c5ccc(F)cc5)CC4)cc3F)c2cc1OC [Cbo-02]"
  DISPLAY UNIT: "%"
  inhibition at 1 µM: 50
- MOLECULE: "COc1cc2nccc(Oc3ccc(NC(=O)C4(C(=O)Nc5ccc(F)cc5)CC4)cc3)c2cc1OC [Cabozantinib, reference compound]"
  DISPLAY UNIT: "%"
  inhibition at 1 µM: 20

###

Molecular target: EPHA3 (Homo sapiens)
Sequence (P29320 21-983): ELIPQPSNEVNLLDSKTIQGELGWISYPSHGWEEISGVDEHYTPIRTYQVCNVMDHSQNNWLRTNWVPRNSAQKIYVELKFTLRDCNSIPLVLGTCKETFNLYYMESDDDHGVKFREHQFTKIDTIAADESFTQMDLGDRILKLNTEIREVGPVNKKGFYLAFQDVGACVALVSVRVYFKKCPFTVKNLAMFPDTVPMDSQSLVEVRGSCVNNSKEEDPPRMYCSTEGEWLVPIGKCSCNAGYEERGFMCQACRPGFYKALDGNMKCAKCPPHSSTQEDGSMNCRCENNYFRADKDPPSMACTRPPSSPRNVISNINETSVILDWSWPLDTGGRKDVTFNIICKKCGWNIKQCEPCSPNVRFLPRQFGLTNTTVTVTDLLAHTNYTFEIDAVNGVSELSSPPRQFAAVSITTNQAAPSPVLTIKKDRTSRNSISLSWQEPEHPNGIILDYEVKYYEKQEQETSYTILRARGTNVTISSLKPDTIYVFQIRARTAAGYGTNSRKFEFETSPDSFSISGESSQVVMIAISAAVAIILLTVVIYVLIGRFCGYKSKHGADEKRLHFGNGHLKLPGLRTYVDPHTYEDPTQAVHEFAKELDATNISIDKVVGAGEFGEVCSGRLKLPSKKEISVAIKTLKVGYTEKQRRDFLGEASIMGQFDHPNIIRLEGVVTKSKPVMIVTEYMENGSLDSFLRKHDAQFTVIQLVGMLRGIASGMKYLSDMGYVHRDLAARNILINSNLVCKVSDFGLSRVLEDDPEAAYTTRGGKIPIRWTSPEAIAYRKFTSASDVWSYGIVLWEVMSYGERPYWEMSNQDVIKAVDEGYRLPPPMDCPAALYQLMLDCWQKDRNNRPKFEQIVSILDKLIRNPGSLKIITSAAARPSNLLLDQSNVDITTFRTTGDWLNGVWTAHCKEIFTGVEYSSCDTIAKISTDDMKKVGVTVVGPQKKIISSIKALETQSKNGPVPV
Assay: Tyrosine kinase inhibition assay
Format: biochemical
Details: single concentration 1.0 μM, read-out: percent inhibition
Method: Tyrosine kinase inhibition assays were performed at ThermoFisher Life Technologies (Madison, WI, USA) using standard protocols (SelectScreen Biochemical Profiling Service, Thermo Fisher Scientific). ATP concentrations used were at the apparent Km. […] The apparent ATP Km was previously determined using a Z′-LYTE assay. […] The inhibition activities of compounds were determined in biochemical assays using single concentration (1.0 μM) measurements. […]
ENDPOINT LABEL: inhibition at 1 µM

- COMPOUND: "COc1cc2nccc(Oc3ccc(NC(=O)C4(NC(=O)c5ccc(F)cc5)CC4)cc3F)c2cc1Oc1ccc(N)cc1F"
  TESTED TARGET: "EPHA3 (Homo sapiens)"
  ENDPOINT VALUE: "14%"
- COMPOUND: "COc1cc2nccc(Oc3ccc(NC(=O)C4(NC(=O)c5ccc(F)cc5)CC4)cc3F)c2cc1OC"
  TESTED TARGET: "EPHA3 (Homo sapiens)"
  ENDPOINT VALUE: "-3%"
- COMPOUND: "COc1cc2nccc(Oc3ccc(NC(=O)C4(C(=O)Nc5ccc(F)cc5)CC4)cc3F)c2cc1Oc1ccc(N)cc1F"
  TESTED TARGET: "EPHA3 (Homo sapiens)"
  ENDPOINT VALUE: "97%"
- COMPOUND: "COc1cc2nccc(Oc3ccc(NC(=O)C4(C(=O)Nc5ccc(F)cc5)CC4)cc3)c2cc1OC [Cabozantinib, reference compound]"
  TESTED TARGET: "EPHA3 (Homo sapiens)"
  ENDPOINT VALUE: "100%"
- COMPOUND: "COc1cc2nccc(Oc3ccc(NC(=O)C4(NC(=O)c5ccc(F)cc5)CC4)cc3F)c2cc1Oc1c(F)cc(N)cc1F"
  TESTED TARGET: "EPHA3 (Homo sapiens)"
  ENDPOINT VALUE: "24%"
